Taken from ChEMBL document CHEMBL6134930.

Target: CYP3A4 (Homo sapiens, UniProt P08684)
Assay: Time dependent inhibition of CYP3A4 (unknown origin) using midazolam as substrate at 30 uM measured after 30 mins relative to control
Format: ADME
Details: probe midazolam, read-out: TDI
Known inhibition at 0.5 h, 30 µM of a selection of compounds
Test Readout: inhibition at 0.5 h, 30 µM (%)

- Cc1cccnc1-c1ccc(-c2n[nH]c3ncc(-c4ccc5c(c4)CC[C@@H](N4C6COCC4C6)CC5)cc23)cc1: 31
- Cc1cccnc1-c1ccc(-c2c[nH]c3ncc(-c4ccc5c(c4)CC[C@@H](N4C6COCC4C6)CC5)cc23)cc1: 58
- Cc1cccnc1-c1ccc(-c2n[nH]c3ncc(-c4ccc5c(c4)CC[C@@H](N4C6COCC4C6)CC5)cc23)nc1: 16

----------
Experiment: Terminal half life in CD-1 mouse at 1 mg/kg, iv measured up to 24 hrs by LC-MS/MS analysis
Format: ADME, organism-based
Conditions: in vivo, read-out: beta t1/2 (converted)
Test Readout: half-life (h)

* CN(C)C(=O)c1ccc(-c2n[nH]c3ncc(-c4ccc5c(c4)CC[C@@H](N4C6COCC4C6)CC5)cc23)cc1 | 8.1

----------
Target: Cytochrome P450 3A4 (Homo sapiens)
Sequence (P08684 whole entry): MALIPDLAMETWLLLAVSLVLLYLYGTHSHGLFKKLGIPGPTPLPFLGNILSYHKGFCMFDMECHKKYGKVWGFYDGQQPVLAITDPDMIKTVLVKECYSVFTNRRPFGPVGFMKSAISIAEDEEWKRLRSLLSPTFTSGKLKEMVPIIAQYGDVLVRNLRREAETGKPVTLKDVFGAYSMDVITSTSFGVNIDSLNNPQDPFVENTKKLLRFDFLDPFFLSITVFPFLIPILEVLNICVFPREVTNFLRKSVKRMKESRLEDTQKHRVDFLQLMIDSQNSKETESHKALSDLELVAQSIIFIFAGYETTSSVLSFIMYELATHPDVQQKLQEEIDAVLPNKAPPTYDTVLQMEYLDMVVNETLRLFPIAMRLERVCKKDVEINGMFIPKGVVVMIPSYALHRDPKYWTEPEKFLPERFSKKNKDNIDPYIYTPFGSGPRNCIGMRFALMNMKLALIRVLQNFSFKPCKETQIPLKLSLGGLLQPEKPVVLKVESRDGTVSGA
Experiment: Inhibition of CYP3A4 (unknown origin) using testosterone as substrate measured after 30 mins
Assay type: ADME
pIC50: −log10 of the molar value.
Test Readout: pIC50

* Cc1cccnc1-c1ccc(-c2n[nH]c3ncc(-c4ccc5c(c4)CC[C@@H](N4C6COCC4C6)CC5)cc23)nc1 | 5.25

----------
Target: Tyrosine-protein kinase receptor UFO (Homo sapiens, UniProt P30530)
Sequence (P30530 whole entry): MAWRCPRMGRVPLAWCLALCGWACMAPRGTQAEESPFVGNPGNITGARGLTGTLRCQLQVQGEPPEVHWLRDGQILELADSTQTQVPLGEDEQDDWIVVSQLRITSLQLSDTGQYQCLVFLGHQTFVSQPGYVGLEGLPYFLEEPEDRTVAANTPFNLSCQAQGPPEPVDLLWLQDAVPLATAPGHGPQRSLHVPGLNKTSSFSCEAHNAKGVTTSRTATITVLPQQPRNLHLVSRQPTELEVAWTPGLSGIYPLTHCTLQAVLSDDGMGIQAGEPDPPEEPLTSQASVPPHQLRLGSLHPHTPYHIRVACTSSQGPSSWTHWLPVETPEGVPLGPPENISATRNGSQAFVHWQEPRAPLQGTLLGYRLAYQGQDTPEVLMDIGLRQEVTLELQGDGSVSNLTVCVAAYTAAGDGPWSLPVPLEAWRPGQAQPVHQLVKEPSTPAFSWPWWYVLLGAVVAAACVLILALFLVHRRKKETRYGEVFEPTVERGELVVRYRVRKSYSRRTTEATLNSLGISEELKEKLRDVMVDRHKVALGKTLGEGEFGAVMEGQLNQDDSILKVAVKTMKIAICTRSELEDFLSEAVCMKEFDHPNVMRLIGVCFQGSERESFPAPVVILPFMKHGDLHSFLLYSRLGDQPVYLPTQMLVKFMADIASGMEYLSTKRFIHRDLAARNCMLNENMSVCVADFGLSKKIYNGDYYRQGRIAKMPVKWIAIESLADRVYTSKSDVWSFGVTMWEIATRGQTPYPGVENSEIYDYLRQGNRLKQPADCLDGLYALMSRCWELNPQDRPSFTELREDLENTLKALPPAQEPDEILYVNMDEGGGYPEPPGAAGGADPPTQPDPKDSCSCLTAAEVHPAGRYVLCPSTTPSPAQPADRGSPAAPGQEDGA
Experiment: Binding affinity to AXL (unknown origin) expressed in HEK293 cells transfected with Nano-Luc fusion vector assessed as dissociation constant by measuring decrease in BRET signal preincubated for 1 hr followed by K-5 NanoBRET tracer addition incubated for 2 hrs
pKd: −log10 of the molar value.
Test Readout: pKd

• O=S1(=O)CCCN1c1ccc(-c2n[nH]c3ncc(-c4ccc5c(c4)CC[C@@H](N4C6COCC4C6)CC5)cc23)cc1 = 7.29
• c1ccc(-c2ccc(-c3n[nH]c4ncc(-c5ccc6c(c5)CC[C@@H](N5C7COCC5C7)CC6)cc34)cc2)nc1 = 7.12
• CS(=O)(=O)c1ccc(-c2n[nH]c3ncc(-c4ccc5c(c4)CC[C@@H](N4C6COCC4C6)CC5)cc23)cc1 = 7.89
• COCCOc1ccc(-c2n[nH]c3ncc(-c4ccc5c(c4)CC[C@@H](N4C6COCC4C6)CC5)cc23)cc1 = 7.18
• Cn1ccnc1-c1ccc(-c2n[nH]c3ncc(-c4ccc5c(c4)CC[C@@H](N4C6COCC4C6)CC5)cc23)cc1 = 8.72
• c1cc2c(cc1-c1cnc3[nH]nc(-c4ccc5c(c4)OCCO5)c3c1)CCC(N1C3COCC1C3)CC2 (racemic) = 7.16
• Cn1ncnc1-c1ccc(-c2n[nH]c3ncc(-c4ccc5c(c4)CC[C@@H](N4C6COCC4C6)CC5)cc23)cc1 = 8.15
• c1cc2c(cc1-c1cnc3[nH]nc(-c4ccc(N5CC6(COC6)C5)cc4)c3c1)CC[C@@H](N1C3COCC1C3)CC2 = 6.92

----------
Target: Tyrosine-protein kinase receptor UFO (Homo sapiens)
Experiment: Binding affinity to AXL (unknown origin) expressed in HEK293 cells transfected with Nano-Luc fusion vector assessed as dissociation constant by measuring decrease in BRET signal preincubated for 1 hr followed by K-5 NanoBRET tracer addition incubated for 2 hrs
Test Readout: Kd (nM)

• CN(C)C(=O)c1ccc(-c2n[nH]c3ncc(-c4ccc5c(c4)CC[C@@H](N4C6COCC4C6)CC5)cc23)cc1 = 6.8
• Cn1nncc1-c1ccc(-c2n[nH]c3ncc(-c4ccc5c(c4)CC[C@@H](N4C6COCC4C6)CC5)cc23)cc1 = 91
• O=C1OCCN1c1ccc(-c2n[nH]c3ncc(-c4ccc5c(c4)CC[C@@H](N4C6COCC4C6)CC5)cc23)cc1 = 27
• c1cc(-c2n[nH]c3ncc(-c4ccc5c(c4)CCC(N4C6COCC4C6)CC5)cc23)ccn1 (racemic) = 38
• O=C1CCCN1c1ccc(-c2n[nH]c3ncc(-c4ccc5c(c4)CC[C@@H](N4C6COCC4C6)CC5)cc23)cc1 = 89
• c1cc2c(cc1-c1cnc3[nH]nc(-c4ccc(N5C[C@H]6C[C@@H]5CO6)cc4)c3c1)CC[C@@H](N1C3COCC1C3)CC2 = 130
• c1cc2c(cc1-c1cnc3[nH]nc(-c4ccc(N5CCOCC5)cc4)c3c1)CC[C@@H](N1C3COCC1C3)CC2 = 190
• c1cncc(-c2ccc(-c3n[nH]c4ncc(-c5ccc6c(c5)CC[C@@H](N5C7COCC5C7)CC6)cc34)cc2)c1 = 410
• CP(C)(=O)c1ccc(-c2n[nH]c3ncc(-c4ccc5c(c4)CCC(N4C6COCC4C6)CC5)cc23)cc1 (racemic) = 170

----------
Test: Clearance in Beagle dog at 1 mg/kg, iv measured up to 8 hrs by LC-MS/MS analysis
Format: ADME, organism-based, Canis lupus familiaris
Conditions: in vivo
Test Readout: clearance

* CN(C)C(=O)c1ccc(-c2n[nH]c3ncc(-c4ccc5c(c4)CC[C@@H](N4C6COCC4C6)CC5)cc23)cc1 | 2 L/h/kg

----------
Experiment: Volume of distribution at steady state in CD-1 mouse at 1 mg/kg, iv measured up to 24 hrs by LC-MS/MS analysis
Assay type: ADME, organism-based
Conditions: in vivo, read-out: Vdss
Test Readout: Vd (L/kg)

- CN(C)C(=O)c1ccc(-c2n[nH]c3ncc(-c4ccc5c(c4)CC[C@@H](N4C6COCC4C6)CC5)cc23)cc1: 3.2

----------
Assay: Apparent permeability of compound from apical to basolateral side in human Caco-2 cells
Type: ADME, cell-based
Details: read-out: permeability
Known Papp A→B of a selection of molecules
Test Readout: Papp A→B

* Cc1cccnc1-c1ccc(-c2n[nH]c3ncc(-c4ccc5c(c4)CC[C@@H](N4C6COCC4C6)CC5)cc23)cc1 | 0.96 ×10⁻⁶ cm/s
* Cc1cccnc1-c1ccc(-c2n[nH]c3ncc(-c4ccc5c(c4)CC[C@@H](N4C6COCC4C6)CC5)cc23)nc1 | 1.7 ×10⁻⁶ cm/s
* O=C1OCCN1c1ccc(-c2n[nH]c3ncc(-c4ccc5c(c4)CC[C@@H](N4C6COCC4C6)CC5)cc23)cc1 | 8 ×10⁻⁶ cm/s
* Cc1cccnc1-c1ccc(-c2c[nH]c3ncc(-c4ccc5c(c4)CC[C@@H](N4C6COCC4C6)CC5)cc23)cc1 | 0.58 ×10⁻⁶ cm/s
* c1cc2c(cc1-c1cnc3[nH]nc(-c4ccc(N5C[C@H]6C[C@@H]5CO6)cc4)c3c1)CC[C@@H](N1C3COCC1C3)CC2 | 6.7 ×10⁻⁶ cm/s
* COCCOc1ccc(-c2n[nH]c3ncc(-c4ccc5c(c4)CC[C@@H](N4C6COCC4C6)CC5)cc23)cc1 | 17 ×10⁻⁶ cm/s

----------
Experiment: AUCinfinity in CD-1 mouse at 1 mg/kg, iv measured up to 24 hrs by LC-MS/MS analysis
Format: ADME, organism-based
Conditions: in vivo
Test Readout: AUC(0-inf) (ng·h/mL)

* CN(C)C(=O)c1ccc(-c2n[nH]c3ncc(-c4ccc5c(c4)CC[C@@H](N4C6COCC4C6)CC5)cc23)cc1 | 430
